Biological target: T1, human Neuropeptide S receptor, wildtype (NPSR WT) (human, UniProt Q6W5P4 1-371)
T1 construct: Stably expressed in CHO dhfr(-), HEK 293T or HEK 293 cells; also called hNPSR; human NPSR
T1 sequence: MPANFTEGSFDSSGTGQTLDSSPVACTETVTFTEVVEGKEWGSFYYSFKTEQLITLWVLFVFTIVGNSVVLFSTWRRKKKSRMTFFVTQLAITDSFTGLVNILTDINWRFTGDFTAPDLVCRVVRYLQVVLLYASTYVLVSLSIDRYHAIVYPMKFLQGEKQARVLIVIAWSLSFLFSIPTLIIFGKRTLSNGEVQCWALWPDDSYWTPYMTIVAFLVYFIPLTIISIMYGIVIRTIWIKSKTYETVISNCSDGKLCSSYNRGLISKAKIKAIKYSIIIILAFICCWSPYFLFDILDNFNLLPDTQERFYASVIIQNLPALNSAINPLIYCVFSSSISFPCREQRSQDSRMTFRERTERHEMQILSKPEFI
Assay: displacement of 0.15 nM [125I] Y10-NPS from CHO cells stably expressing hNPSR by unlabeled human NPS
Procedure: The monoiodinated form of Y^10-NPS was used as a radioligand in receptor binding experiments. […] No specific binding was detected in mock-transfected CHO cells. CHO cells stably expressing human NPSR were seeded into 24-well plates and cultured for 48 hours. […] Nonspecific binding was determined in the presence of 1 µM unlabeled human NPS. […] Bound radioactivity was counted in a MicroBeta liquid scintillation counter (EG&G Wallac, Gaithersburg, Md.) and corrected for counting efficiency. […]
Where no end group is shown, it is not given here.
observedProperty: pIC50
Numbers only, as −log10 of the molar value.

Input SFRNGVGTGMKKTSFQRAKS-OH (20-residue mature peptide with free C-terminus (-OH); also called human NPS; NPS 1-20) [human Neuropeptide S (hNPS)] . Output pIC50: 9.38
